- System: Intestine
- test: Prodrug conversion in rat intestinal microsomes assessed as half life
Reported values of t1/2 for individual entries
Response body: numeric value in h, unit text excluded.

molecule.smiles: CCOc1cc(NC(=O)C2(NC(=O)c3ccc4c(C5CCCC5)c(-c5ncc(Cl)cn5)n(C)c4c3)CCC2)ccc1/C=C/C(=O)OCCN1CCOCC1
observed: 3.5

Asked: For the compound CCOc1cc(NC(=O)C2(NC(=O)c3ccc4c(C5CCCC5)c(-c5ncc(Cl)cn5)n(C)c4c3)CCC2)ccc1/C=C/C(=O)OCOP(=O)(O)O , what t1/2 is on record?
Given back: 0.083

====

- test: Prodrug conversion in simulated intestinal fluid assessed as half life
- Type: ADME
- protocol.conditions: simulated gi fluid
assay.readout: t1/2 (min)
Response body: numeric value in min, unit text excluded.

molecule.smiles: CCOc1cc(NC(=O)C2(NC(=O)c3ccc4c(C5CCCC5)c(-c5ncc(Cl)cn5)n(C)c4c3)CCC2)ccc1/C=C/C(=O)OCCN(C)C
t1/2 / min: 396

The record that follows has no t1/2 shown yet.
Asked: For the molecule CCOc1cc(NC(=O)C2(NC(=O)c3ccc4c(C5CCCC5)c(-c5ncc(Cl)cn5)n(C)c4c3)CCC2)ccc1/C=C/C(=O)N[C@@H](CC(=O)O)C(N)=O , what t1/2 is on record?
Given back: 4
